Each entry below lists one item and its recorded %Inh value.
System: PHKG2;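 note: KINOMEscan kinase panel screen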
CONDITION DETAILS: concentration: 1 μM, replicates: in singlicate; n = 1
OUTCOME MEASURE: %Inh

>>> recorded_measurement("COc1cccc(-c2nc(-c3ccccc3)[nH]c2-c2ccncc2)c1 [SB-610250]")
"0%"
>>> recorded_measurement("CC(C)c1nc(-c2cccc(NS(=O)(=O)c3c(F)cccc3F)c2)c(-c2ccnc(Nc3ccc(N4CCOCC4)nc3)n2)s1.Cl [GSK1723980]")
"0%"
>>> recorded_measurement("COc1ccc(C)c(Nc2ccnc(Nc3ccc(-c4cnc[nH]4)cc3)n2)c1.Cl [GW784041]")
"8%"
>>> recorded_measurement("Cc1ccc(O)cc1Nc1ccnc2cc(-c3ccc(CN4CCCCC4)o3)ccc12 [GW557777]")
"7%"
>>> recorded_measurement("O=C1NC(=O)C(c2ccccc2Cl)=C1Nc1cccc(Cl)c1 [SB-342409]")
"0%"
>>> recorded_measurement("COc1cccc(C2=C(Nc3cccc(O)c3)C(=O)NC2=O)c1 [SB-390771]")
"0%"
>>> recorded_measurement("N#CC1(c2cccc(C(=O)Nc3cccc(Oc4ccc5nc(NC(=O)C6CC6)sc5n4)c3)c2)CC1")
"19%"
>>> recorded_measurement("Cc1cccc(Nc2nc(N[C@H]3CCCC[C@H]3N)ncc2C(N)=O)c1.Cl [GSK986310]")
"44%"
>>> recorded_measurement("CN(c1ccc(NC(=O)Nc2cccc(Cl)c2)cc1)c1ccnc(N)n1.Cl [GW830707]")
"0%"
>>> recorded_measurement("CCOc1nccc(-c2c(-c3ccc(F)cc3)ncn2C2CCNCC2)n1 [SB-249175]")
"0%"
>>> recorded_measurement("COc1cccc(NC(=O)NCCNc2ccnc(Nc3ccc(F)cc3)n2)c1 [GSK1379879]")
"0%"
>>> recorded_measurement("Cc1nn2c(=O)cc(N3CCO[C@H](C)C3)nc2n1Cc1cccc(Cl)c1Cl [GSK2373693]")
"0%"
>>> recorded_measurement("CCNc1nccc(-c2c(-c3ccc(F)cc3)ncn2C2CCN(C)CC2)n1")
"12%"
>>> recorded_measurement("Cn1cc(-c2ccc3c(c2)CCN3C(=O)Cc2cc(F)cc(C(F)(F)F)c2)c2c(N)ncnc21 [GSK2635225]")
"3%"
>>> recorded_measurement("CC(C)(C)c1ccc(C(=O)Nc2cn3cc(-n4ccnc4)ccc3n2)cc1")
"13%"
>>> recorded_measurement("O=C(Nc1c(F)cccc1F)c1cc(C(=O)c2ccccc2F)c[nH]1 [GSK1326180]")
"0%"
>>> recorded_measurement("Fc1cc(Cl)ccc1Nc1ccnc2cc(-c3ccc(CN4CCSCC4)o3)ccc12 [GW560106]")
"0%"
>>> recorded_measurement("CC(C)c1nc(-c2ccc(F)c(NS(=O)(=O)c3c(F)cccc3F)c2)c(-c2ccnc(Nc3ccc(N4CCOCC4)nc3)n2)s1 [GSK1804250]")
"9%"
>>> recorded_measurement("Nc1ncc(-c2ccc3nccc(-c4ccncc4)c3c2)cc1S(=O)(=O)N1CCCCC1 [GSK1693850]")
"14%"
